All figures here come from ChEMBL document CHEMBL1132123.

Assay target: Trifunctional purine biosynthetic protein adenosine-3 (Mus musculus)
Sequence (Q64737 whole entry): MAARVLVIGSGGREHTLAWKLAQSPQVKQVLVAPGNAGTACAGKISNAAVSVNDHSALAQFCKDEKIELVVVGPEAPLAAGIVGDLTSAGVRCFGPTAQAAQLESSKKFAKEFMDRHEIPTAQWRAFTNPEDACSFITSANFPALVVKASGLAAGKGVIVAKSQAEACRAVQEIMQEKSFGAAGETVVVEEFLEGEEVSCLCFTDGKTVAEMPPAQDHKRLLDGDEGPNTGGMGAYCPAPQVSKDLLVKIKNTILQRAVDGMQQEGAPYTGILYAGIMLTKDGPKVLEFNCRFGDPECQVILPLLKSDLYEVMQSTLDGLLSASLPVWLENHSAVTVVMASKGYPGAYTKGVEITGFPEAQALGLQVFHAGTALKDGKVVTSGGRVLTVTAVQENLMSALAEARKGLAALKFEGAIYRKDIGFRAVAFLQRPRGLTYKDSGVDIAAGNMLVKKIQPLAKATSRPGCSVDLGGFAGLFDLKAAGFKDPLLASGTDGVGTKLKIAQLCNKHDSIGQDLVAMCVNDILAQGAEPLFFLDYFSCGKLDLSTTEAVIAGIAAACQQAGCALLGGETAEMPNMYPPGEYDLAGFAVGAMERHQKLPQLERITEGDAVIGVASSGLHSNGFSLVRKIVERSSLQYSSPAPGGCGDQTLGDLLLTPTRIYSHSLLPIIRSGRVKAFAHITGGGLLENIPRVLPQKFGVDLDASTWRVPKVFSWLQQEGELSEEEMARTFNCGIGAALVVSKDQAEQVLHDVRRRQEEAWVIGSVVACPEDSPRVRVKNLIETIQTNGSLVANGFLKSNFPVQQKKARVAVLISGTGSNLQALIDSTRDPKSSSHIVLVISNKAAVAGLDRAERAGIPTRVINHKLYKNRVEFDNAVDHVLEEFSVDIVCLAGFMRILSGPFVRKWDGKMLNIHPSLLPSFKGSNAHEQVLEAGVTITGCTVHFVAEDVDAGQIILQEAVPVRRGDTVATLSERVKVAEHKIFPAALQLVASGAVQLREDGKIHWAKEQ
Test protocol: Inhibitory activity against murine glycinamide ribonucleotide formyltransferase (GARFT) enzyme
Parameter: Ki (µM)

[[record]]
compound = "C[C@](CCC(=O)O)(NC(=O)c1ccc(CCC2CNc3nc(N)nc(N)c3C2)s1)C(=O)O (stereo partly drawn)"
unit_spec = "µM"
measured = 9.2

[[record]]
compound = "C[C@](CCC(=O)O)(NC(=O)c1ccc(CCC2CNc3nc(N)nc(N)c3C2)cc1)C(=O)O (stereo partly drawn)"
unit_spec = "µM"
measured = 56

[[record]]
compound = "C[C@](CCC(=O)O)(NC(=O)c1ccc(CCC2CNc3nc(N)nc(N)c3C2)o1)C(=O)O (stereo partly drawn)"
unit_spec = "µM"
measured = 0.71

